STUDY_TARGET: human ERK-2 (Mitogen Activated Kinase 1) (Homo sapiens)
Construct: N-terminal 6-His fusion protein in E. coli and corresponding to aa 8-360; 6-His (N); made in house; host or cells: E. coli
ASSAY_EXPLANATION: ERK-2 Enzymatic Assay
Type: biochemical
CONDITIONS: TABLE II; 5nM ERK-2 enzyme, 25µM ATP, S/T17 peptide substrate; single assay or mean of multiple assays
Could you please report measured pIC50 for the items listed next?
Answers are plain numbers, as −log10 of the molar value.

// known answers, use as guide
{"columns": ["COMPOUND", "pIC50"],
 "data": [
  ["COc1ccc([C@H](NC(=O)c2ccc3cnc(N[C@H]4CCOC[C@H]4F)nc3c2)c2ccnn2C)cc1F [II-36]", 8.42],
  ["COc1ccc([C@H](NC(=O)c2cc(F)c3cnc(Nc4ccnn4C)nc3c2)c2cncn2C)cc1F [II-53]", 8.82],
  ["COc1ccc([C@H](NC(=O)c2cc(F)c3cnc(Nc4ccnn4C)nc3c2)c2cnn(C)c2)cc1F [II-23]", 7.97]
]}

Now consider a different compound.
Entry COc1ccc([C@H](NC(=O)c2cc(F)c3cnc(N[C@@H]4CCOC[C@@H]4F)nc3c2)c2cnn(C)c2)cc1F [II-15] ; pIC50 = 8.37

====

STUDY_TARGET: human ERK-2 (Mitogen Activated Kinase 1) (Homo sapiens, UniProt P28482)
Construct: N-terminal 6-His fusion protein in E. coli and corresponding to aa 8-360; 6-His (N); made in house; host or cells: E. coli
Sequence (P28482 8-360): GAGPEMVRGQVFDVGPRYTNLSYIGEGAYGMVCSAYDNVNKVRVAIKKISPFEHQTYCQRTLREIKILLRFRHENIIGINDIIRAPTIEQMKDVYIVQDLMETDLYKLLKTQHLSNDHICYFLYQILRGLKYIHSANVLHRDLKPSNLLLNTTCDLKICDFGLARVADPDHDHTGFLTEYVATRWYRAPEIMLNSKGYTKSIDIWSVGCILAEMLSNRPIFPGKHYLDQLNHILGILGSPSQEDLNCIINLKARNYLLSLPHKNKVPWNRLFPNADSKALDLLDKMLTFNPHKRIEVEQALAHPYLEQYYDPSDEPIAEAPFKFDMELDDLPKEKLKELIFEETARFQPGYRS
ASSAY_EXPLANATION: ERK-2 Enzymatic Assay
Assay type: biochemical
CONDITIONS: TABLE I; 5nM ERK-2 enzyme, 25µM ATP, S/T17 peptide substrate; single assay or mean of multiple assays
Experimental: Compounds were tested in an enzymatic assay using human ERK-2 (Mitogen Activated Kinase 1), recombinantly expressed as an N-terminal 6-His fusion protein in E. coli and corresponding to aa 8-360. […] The assay was run at ambient temperature in a white 384-well polypropylene plate (Nunc, Inc of Naperville, IL; Cat. 267462) collecting data every 50 seconds for approximately 30 minutes on an Envision plate reader (PerkinElmer, Inc. of Waltham, MA); Excitation 340 nm/Emission 495 nm. […]
Exercise: state measured pIC50 for each of the compounds provided.
Numbers only, as −log10 of the molar value.

Examples from the recorded data:
{"columns": ["COMPOUND", "pIC50"],
 "data": [
  ["O=C(NC(c1ccc(Cl)c(F)c1)c1ncno1)c1ccc2cnc(NC3CCOCC3)nc2c1 (stereo not shown)", 8.44],
  ["COc1ccc([C@H](NC(=O)c2cc(F)c3cnc(NC4(C)COC4)nc3c2)c2cnn(C)c2)cc1F", 8.22],
  ["COc1ccc([C@H](NC(=O)c2ccc3cnc(NC4CCOCC4)nc3c2)c2cnn(C)c2)cc1Cl", 9.00]
]}

Sample COc1ccc([C@H](NC(=O)c2cc(F)c3cnc(NC4CCOCC4)nc3c2)c2cnn(C)c2)cc1F ; pIC50 observed: 8.82

====

STUDY_TARGET: human ERK-2 (Mitogen Activated Kinase 1) (Homo sapiens)
Construct: N-terminal 6-His fusion protein in E. coli and corresponding to aa 8-360; 6-His (N); made in house; host or cells: E. coli
ASSAY_EXPLANATION: ERK-2 Enzymatic Assay
Assay type: biochemical
CONDITIONS: TABLE I; 5nM ERK-2 enzyme, 25µM ATP, S/T17 peptide substrate; single assay or mean of multiple assays
ATTRIBUTE_MEASURED: pIC50
Answers are plain numbers, as −log10 of the molar value.

{"columns": ["MOLECULE", "ATTRIBUTE_MEASURED", "REPORTED_MEASUREMENT"],
 "data": [
  ["COc1ccc([C@H](NC(=O)c2cc(F)c3cnc(N[C@@H]4CCOC4)nc3c2)c2cnn(C)c2)cc1F [Compound I-61]", "pIC50", 8.70]
]}

Hi there! I need pIC50 for each item below, if you can.
1. O=C(N[C@H](c1ccc(F)c(Cl)c1)[C@H]1CCNC1)c1ccc2cnc(NC3CCOCC3)nc2c1 [Compound I-10]
2. Cn1ccc([C@@H](NC(=O)c2cc(F)c3cnc(NC4CCOCC4)nc3c2)c2ccc(Cl)c(F)c2)n1 [Compound I-22]
3. O=C(N[C@H](c1ccc(C(F)(F)F)c(F)c1)[C@@H]1CCCN1)c1ccc2cnc(NC3CCOCC3)nc2c1 (stereo in doubt) [Compound I-7]
4. CCn1ccc([C@H](NC(=O)c2ccc3cnc(NC4CCOCC4)nc3c2)c2ccc(Cl)c(F)c2)n1 [Compound I-18]

[8.27, 8.85, 8.74, 7.89]

Quick one: give me pIC50 for each item below, same order please.
1. O=C(N[C@H](c1ccc(Cl)c(F)c1)[C@@H]1CCCN1)c1ccc2cnc(NC3CCOCC3)nc2c1 (stereo in doubt) [Compound I-23]
2. CN1CCC[C@@H]1[C@@H](NC(=O)c1ccc2cnc(NC3CCOCC3)nc2c1)c1ccc(C(F)(F)F)c(F)c1 [Compound I-17]

1. 8.64
2. 8.55

Where these numbers come from: patent EP2739618B1
